Test system: E. multilocularis metacestode vesicles
Assay: Metacestode vesicle viability assay (ATP, CellTiter-Glo)
Format: cell-based, Echinococcus multilocularis
Conditions: overview screen, 10 μM, singlets, 12 days, relative to DMSO control
RECORDED ENDPOINT: Viability d12 (relative viability)

Worked cases, answers included:
MOLECULE | RESULT
Clc1cccc(-c2nnc(-c3ccccc3)o2)c1 | 31.8959%
NC[C@H]1O[C@H](O[C@H]2[C@H](O)[C@@H](O[C@H]3O[C@H](CO)[C@@H](O)[C@H](N)[C@H]3O)[C@H](N)C[C@@H]2N)[C@H](N)C[C@@H]1O | 35.1523%

Please report the measured Viability d12 (relative viability) for c1cc(CN2CCCNCCNCCCNCC2)ccc1CN1CCCNCCNCCCNCC1
124.773%

Please report the measured Viability d12 (relative viability) for O=C(CP(=O)(O)O)NCCc1cccc(Oc2ccccc2)c1
61.3703%

Please report the measured Viability d12 (relative viability) for CCOC(=O)/C=C/[C@H](C[C@@H]1CCNC1=O)NC(=O)[C@@H](CC(=O)[C@@H](NC(=O)c1cc(C)on1)C(C)C)Cc1ccc(F)cc1
181.789%

Please report the measured Viability d12 (relative viability) for C[C@H](Cn1cnc2c(N)ncnc21)OCP(=O)(O)O
132.93%

Please report the measured Viability d12 (relative viability) for CCCCCOc1ccc(/C=C2\Oc3c(ccc(O)c3O)C2=O)c(O)c1
137.102%

Please report the measured Viability d12 (relative viability) for Nc1cc(-c2nc3ccccc3[nH]2)n[nH]c1=O
175.408%
